Provenance of the data: ChEMBL document CHEMBL4627406

target_system: Sialin (Homo sapiens)
assay_procedure: Inhibition of human recombinant-Sialin expressed in HEK293 cells assessed as reduction in [3H]Neu5Ac uptake at 30 uM incubated for 15 mins by liquid scintillation counting method
Type: cell-based
Activity calls are given as the source filed them. The rule behind the calls is not given here.
Output constraint: value belongs to yes (1) for active, no (0) for inactive

INSERT INTO assay_data (smiles_input, group) VALUES
  ('O=C(O)[C@@H]1CCCN1C(=O)OCC1c2ccccc2-c2ccccc21', 'no (0)'),
  ('CCN(CC)c1ccc2c(CC(=O)N[C@@H](CCCCNC(=O)OCc3ccccc3)C(=O)O)cc(=O)oc2c1', 'yes (1)'),
  ('CN(C)c1ccc2c(CC(=O)N[C@@H](CCCCNC(=O)OCc3ccccc3)C(=O)O)cc(=O)oc2c1', 'yes (1)'),
  ('O=C(N[C@@H](CSCc1cc(=O)oc2cc(O)c(Cl)cc12)C(=O)O)OCC1c2ccccc2-c2ccccc21', 'yes (1)');

Please state the recorded outcome for this compound: O=C(Cc1cc(=O)oc2c3c4c(cc12)CCCN4CCC3)N[C@@H](CCCCNC(=O)OCc1ccccc1)C(=O)O
yes (1)

Do the same for O=C(NCCCC[C@H](NC(=O)OCC1c2ccccc2-c2ccccc21)C(=O)O)OCC1c2ccccc2-c2ccccc21 please
no (0)

Do the same for O=C(OCc1cc(=O)oc2cc(O)ccc12)OCC1c2ccccc2-c2ccccc21 please
no (0)
